Biological target: T1, recombinant human TROP2 extracellular domain (aa 1-274) comprising His tag (human, UniProt P09758 27-274)
T1 construct: Used here for all assays on recombinant human TROP2 (ELISA, immunoblot, SPR, crystal), although only some of them name the catalogue number; also called human recombinant TROP2; recombinant human TROP2 protein; not shown: His tag
T1 sequence: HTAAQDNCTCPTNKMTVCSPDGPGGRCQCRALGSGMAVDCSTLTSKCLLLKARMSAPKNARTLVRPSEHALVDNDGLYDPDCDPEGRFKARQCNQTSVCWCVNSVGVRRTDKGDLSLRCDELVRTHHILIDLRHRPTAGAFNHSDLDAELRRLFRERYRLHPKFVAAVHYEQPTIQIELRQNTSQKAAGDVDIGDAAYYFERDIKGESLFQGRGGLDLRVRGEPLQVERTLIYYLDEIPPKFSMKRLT
Test: ELISA, coated rh TROP2
endpoint-name: EC50% to KD005

binder="KD054 (antibody, V domains shown, KD005 humanized variant) VH: QVQLQESGGGLIQPGGSLRLSCAASGFTFSGSDMSWVRQAPGKGLEWVSYITSGGTTYYADTVKGRFTISRDNSKNTLYLQMNSLRAEDTAVYRCAKSRLTDSHYVEDAWGQGTLVTVSS" endpoint_name="EC50% to KD005" reported_result="0.875 ratio to KD005"
binder="KD048 (antibody, V domains shown, KD005 humanized variant) VH: QVQLQESGGGLVQPGGSLRLSCAASGFTFSGSDMSWVRQAPGKGPEWVSYITSGGTTYYPDTVKGRFTISRDNSKNTLYLQMNSLRAEDTAVYYCAKSRLTDSHYVEDAWGQGTQVTVSS" endpoint_name="EC50% to KD005" reported_result="1.38 ratio to KD005"
binder="KD064 (antibody, V domains shown, KD005 humanized variant with framework 2 changes) VH: QVQLQESGGGLIQPGGSLRLSCAASGFTFSGSDMSWYRQAPGKGREWVSYITSGGTTYYADTVKGRFTISRDNSKNTLYLQMNSLRAEDTAVYRCAKSRLTDSHYVEDAWGQGTLVTVSS" endpoint_name="EC50% to KD005" reported_result="1.75 ratio to KD005"

Alright, here's another binder for you.
Can you share its EC50% to KD005? I mean this binder: KD046 (antibody, V domains shown, KD005 humanized variant) VH: QVQLLESGGGLVQPGGSLRLSCAASGFTFSGSDMSWVRQAPGKGPEWVSYITSGGTTYYADTVKGRFTISRDNSKNTLYLQMNSLRAEDTAVYYCAKSRLTDSHYVEDAWGQGTLVTVSS
1 ratio to KD005

Data credit: patent US20240360242A1
